Source: patent US9409952B2

Assay: PAMPA (parallel artificial membrane permeability assay)
Format: in vitro ADME
Conditions: PAMPA, pH 6.5
Experimental: 4 μL of a phospholipid-organic solvent solution composed of 10% (w/v) of egg lecithin, 0.5% (w/v) of cholesterol and dodecane (all purchased from Fluka) was added to a Millipore 96-well membrane filter (hydrophobic PVDF (polyvinylidene difluoride), pore size 0.45 microm) (purchased from Millipore Japan) to make an artificial phospholipid membrane. […]
Positions of bridges follow the written chain, without caps; N, C: chain ends. Non-standard residues stand in square brackets, D forms with d. Residues, ends and D or L forms follow the SMILES beside them. *: point of attachment. NMeF = CN[C@@H](Cc1ccccc1)C(=O)O; NMeI = CC[C@H](C)[C@H](NC)C(=O)O; NMeL = CN[C@@H](CC(C)C)C(=O)O; NMeA = CN[C@@H](C)C(=O)O; Piperidide = C1CCN(*)CC1; β3hA = C[C@H](N)CC(=O)O; Sar = CNCC(=O)O; tBu = CC(C)(C)*
Papp at 18 hours, 50 µM listing for selected compounds.

# compound, Papp at 18 hours, 50 µM (×10⁻⁶ cm/s)
rows = [
    ("CC[C@H](C)[C@H]1C(=O)N(C)[C@@H](CC(C)C)C(=O)N[C@@H](C)C(=O)N(C)[C@@H](CC(C)C)C(=O)N(C)[C@@H](Cc2ccccc2)C(=O)N[C@@H]([C@@H](C)O)C(=O)N(C)[C@@H](Cc2ccccc2)C(=O)N(C)[C@@H](CC(C)C)C(=O)N(C)[C@@H](C)C(=O)N[C@@H](C)CC(=O)N[C@H](C(C)C)C(=O)N1C [DP-773] (cyclo(A[NMeL][NMeF]T[NMeF][NMeL][NMeA][β3hA][dV][NMeI][NMeL]))", 46),
    ("CC[C@H](C)[C@H]1C(=O)N[C@H](C(=O)N2CCCCC2)CC(=O)N[C@H](C)C(=O)N(C)[C@@H](Cc2ccccc2)C(=O)N(C)[C@@H](CC(C)C)C(=O)N[C@@H]([C@@H](C)O)C(=O)N(C)CC(=O)N(C)[C@@H](CC(C)C)C(=O)N[C@@H](COC(C)(C)C)C(=O)N1C [DP-77] ([dA][NMeF][NMeL]T[Sar][NMeL]S(tBu)[NMeI]D-Piperidide; lactam N-9)", 21),
    ("CC[C@H](C)[C@H]1C(=O)N[C@@H](C)C(=O)N(C)[C@@H](CC(C)C)C(=O)N(C)[C@@H](Cc2ccccc2)C(=O)N[C@@H]([C@@H](C)O)C(=O)N(C)[C@@H](Cc2ccccc2)C(=O)N(C)[C@@H](CC(C)C)C(=O)N(C)[C@@H](CC(C)C)C(=O)N[C@H](C(=O)N2CCCCC2)CC(=O)N(C)CC(=O)N1C [DP-147] ([Sar][NMeI]A[NMeL][NMeF]T[NMeF][NMeL][NMeL]D-Piperidide; lactam N-10)", 29),
]

====

test: Metabolic stability in human hepatic microsome; type: in vitro ADME; details: microsomes, pH 7.4; human hepatic microsome, NADPH(+); read-out: CL NADPH(+)
Starred links: 1 amine or outer side, 2 acyl side, 3 side chain; linkers in the order of their positions; H or OH if unused. Positions of bridges follow the written chain, without caps; N, C: chain ends. Non-standard residues stand in square brackets, D forms with d. Residues, ends and D or L forms follow the SMILES beside them. *: point of attachment. NMeF = CN[C@@H](Cc1ccccc1)C(=O)O; NMeβAla = CN(CCC(=O)[*:2])[*:1]; NMeL = CN[C@@H](CC(C)C)C(=O)O; NMeV = CN[C@H](C(=O)O)C(C)C; NMeA = CN[C@@H](C)C(=O)O; Piperidide = C1CCN(*)CC1
reportedProperty: microsomal CLint at 1 uM (µL/min/mg)

# compound, reportedProperty, recordedResult
rows = [
    ("CC[C@H](C)[C@@H]1NC(=O)[C@H](CC(C)C)N(C)C(=O)[C@H](C)N(C)C(=O)[C@H]([C@@H](C)O)NC(=O)[C@H](C)N(C)C(=O)[C@H](C(C)C)N(C)C(=O)[C@H](Cc2ccccc2)NC(=O)CCN(C)C(=O)C[C@@H](C(=O)N(C)[C@@H](Cc2ccccc2)C(=O)N[C@@H](C)C(=O)N2CCCCC2)NC(=O)[C@H](C)N(C)C1=O [DP-490] ([NMeβAla]F[NMeV][NMeA]T[NMeA][NMeL]I[NMeA]D[NMeF]A-Piperidide; lactam N-10)", "microsomal CLint at 1 uM", 27),
]

====

experiment: Metabolic stability in human hepatic microsome; type: in vitro ADME; details: human, microsomes, pH 7.4, CL NADPH(+)
Positions of bridges follow the written chain, without caps; N, C: chain ends. Non-standard residues stand in square brackets, D forms with d. Residues, ends and D or L forms follow the SMILES beside them. *: point of attachment. NMeF = CN[C@@H](Cc1ccccc1)C(=O)O; NMeI = CC[C@H](C)[C@H](NC)C(=O)O; NMeL = CN[C@@H](CC(C)C)C(=O)O; NMeV = CN[C@H](C(=O)O)C(C)C; NMeA = CN[C@@H](C)C(=O)O; Piperidide = C1CCN(*)CC1; dNMeA = CN[C@H](C)C(=O)O; β3hA = C[C@H](N)CC(=O)O; Sar = CNCC(=O)O
log10 microsomal CLint at 1 uM listing for selected compounds.
reportedProperty: log10 microsomal CLint at 1 uM (log10 of the value in µL/min/mg)

# compound, recordedResult
rows = [
    ("CC[C@H](C)[C@H]1C(=O)N(C)[C@@H](CC(C)C)C(=O)N[C@@H]([C@@H](C)O)C(=O)N2CCC[C@H]2C(=O)N[C@@H](Cc2ccccc2)C(=O)N[C@H](C(=O)N2CCCCC2)CC(=O)N(C)CC(=O)N(C)[C@@H](CC(C)C)C(=O)N[C@@H](Cc2ccccc2)C(=O)N[C@@H](CC(C)C)C(=O)NCC(=O)N1C [DP-106] ([Sar][NMeL]FLG[NMeI][NMeL]TPFD-Piperidide; lactam N-11)", 2.19),
    ("CC[C@H](C)[C@@H]1NC(=O)[C@@H](C)N(C)C(=O)C[C@@H](C(=O)N(C)[C@@H](Cc2ccccc2)C(=O)N[C@@H](C)C(=O)N2CCCCC2)NC(=O)[C@H](Cc2ccccc2)N(C)C(=O)[C@H](C)NC(=O)[C@H](CC(C)C)N(C)C(=O)[C@H](C)N(C)C(=O)[C@H]([C@@H](C)O)NC(=O)[C@H](C(C)C)N(C)C(=O)[C@H](C)N(C)C1=O [DP-124] ([dNMeA]I[NMeA][NMeV]T[NMeA][NMeL]A[NMeF]D[NMeF]A-Piperidide; lactam N-10)", 1.43),
    ("CC(C)C[C@@H]1NC(=O)[C@H](Cc2ccccc2)N(C)C(=O)[C@H]([C@@H](C)O)NC(=O)[C@H](Cc2ccccc2)N(C)C(=O)[C@H](C)N(C)C(=O)[C@H](CC(C)C)N(C)C(=O)C[C@@H](C(=O)N2CCCCC2)NC(=O)[C@@H]2CCCN2C1=O [DP-688] ([NMeL][NMeA][NMeF]T[NMeF]LPD-Piperidide; lactam N-8)", 1.36),
    ("CC[C@H](C)[C@H]1C(=O)NCC(=O)N(C)[C@@H](Cc2ccccc2)C(=O)N[C@@H]([C@@H](C)O)C(=O)N(C)[C@@H](CC(C)C)C(=O)N[C@@H](CC(C)C)C(=O)N[C@@H](C)CC(=O)N(C)[C@H](C)C(=O)N(C)[C@@H](CC(C)C)C(=O)N[C@@H](Cc2ccccc2)C(=O)N(C)[C@@H](CC(C)C)C(=O)N[C@@H](C(C)C)C(=O)N1C [DP-757] (cyclo(F[NMeL]V[NMeI]G[NMeF]T[NMeL]L[β3hA][dNMeA][NMeL]))", 2.09),
    ("CC[C@H](C)[C@@H]1NC(=O)[C@H](C)N(C)C(=O)[C@@H](C)N(C)C(=O)C[C@H](C)NC(=O)[C@H](CC(C)C)N(C)C(=O)[C@H](C)N(C)C(=O)[C@H](Cc2ccccc2)N(C)C(=O)[C@H]([C@@H](C)O)NC(=O)[C@H](Cc2ccccc2)N(C)C(=O)[C@H](CC(C)C)N(C)C1=O [DP-783] (cyclo(I[NMeL][NMeF]T[NMeF][NMeA][NMeL][β3hA][dNMeA][NMeA]))", 2.43),
]

====

assay: PAMPA (parallel artificial membrane permeability assay); type: in vitro ADME; conditions: PAMPA; membrane permeation rate (Pe); 50 mM MOPSO buffer pH 6.5 with 5.0% glycocholic acid, 37° C., 18 hours; read-out: iPAMPA Pe
Starred links: 1 amine or outer side, 2 acyl side, 3 side chain; linkers in the order of their positions; H or OH if unused. Positions of bridges follow the written chain, without caps; N, C: chain ends. Non-standard residues stand in square brackets, D forms with d. Residues, ends and D or L forms follow the SMILES beside them. *: point of attachment. NMeF = CN[C@@H](Cc1ccccc1)C(=O)O; NMeGABA = CN(CCCC(=O)[*:2])[*:1]; NMeL = CN[C@@H](CC(C)C)C(=O)O; NMeV = CN[C@H](C(=O)O)C(C)C; NMeA = CN[C@@H](C)C(=O)O; Piperidide = C1CCN(*)CC1; dNMeA = CN[C@H](C)C(=O)O; β3hA = C[C@H](N)CC(=O)O
reportedProperty: Papp at 18 hours, 50 µM (×10⁻⁶ cm/s)

# compound, reportedProperty, recordedResult
rows = [
    ("CC(C)C[C@H]1C(=O)N(C)[C@@H](C)C(=O)N[C@@H]([C@@H](C)O)C(=O)N(C)[C@@H](C)C(=O)N[C@H](C(=O)N(C)[C@@H](Cc2ccccc2)C(=O)N[C@@H](C)C(=O)N2CCCCC2)CC(=O)N(C)[C@H](C)C(=O)N(C)[C@@H](Cc2ccccc2)C(=O)N(C)[C@@H](C)C(=O)N[C@@H](C(C)C)C(=O)N1C [DP-462] ([dNMeA][NMeF][NMeA]V[NMeL][NMeA]T[NMeA]D[NMeF]A-Piperidide; lactam N-9)", "Papp at 18 hours, 50 µM", 9.5),
    ("CC[C@H](C)[C@@H]1NC(=O)[C@H](CC(C)C)N(C)C(=O)[C@H](C)NC(=O)CCCN(C)C(=O)C[C@H](C)NC(=O)[C@H]([C@@H](C)O)NC(=O)[C@H](Cc2ccccc2)NC(=O)[C@H](C(C)C)N(C)C(=O)[C@H](Cc2ccccc2)N(C)C1=O [DP-824] (cyclo(A[NMeL]I[NMeF][NMeV]FT[β3hA][NMeGABA]))", "Papp at 18 hours, 50 µM", 29),
]
